Values were extracted from ChEMBL document CHEMBL1201862.

Test system: UO-31
Assay: NCI tumour cell line growth inhibition, 48 h
Activity calls are given as the source filed them. Rule as the data show it: active = GI50 up to about 1.1 µM and inactive = higher.
Recorded GI50, one value per entry.

[ask] Quick one: give measured GI50 for O=C1/C(=C2/C(=O)N(c3ccccc3)c3ccccc32)Nc2ccccc21
[reply] 43.7 µM (inactive)

[ask] Name the recorded GI50 of the compound listed here: Cc1ccc2nc(NC(=O)C(=O)CC(=O)c3cccc4ccccc34)sc2c1
[reply] > 100 µM (inactive)

[ask] Supply measured GI50 of Cc1nc2c(Cl)cc(Cl)cc2c2c1CCO2 in your reply.
[reply] 67 µM (inactive)

[ask] Output GI50 of CC1=C(N(C)C)C(=O)c2nc3n(c2C1=O)CCC3OC(N)=O (stereo not given)
[reply] 17.3 µM (inactive)

[ask] Look up and report measured GI50 for this entry: O=C(/C=C/c1ccc(O)c(-c2cc(C(=O)/C=C/c3ccc(O)cc3)c(O)cc2O)c1)c1ccc(O)cc1O
[reply] > 50 µM (inactive)

Further cases:
[ask] Please look at this compound and report its GI50: CCOC(=O)C(Cl)(Cl)/S(=N\S(=O)(=O)c1ccccc1)NC(=O)c1ccccc1 (stereo not given)
[reply] > 100 µM (inactive)

[ask] Write down GI50 measured for item CC(=O)O[C@H]1CC[C@H]2[C@@H]3CCC4=CC(=O)C=C[C@]4(O)[C@H]3CC[C@]12C
[reply] 55.5 µM (inactive)

* * *

Test system: SK-MEL-5
Test: NCI tumour cell line growth inhibition, 48 h
The source made the active and inactive calls. Cut-off read from the data, not from the text of the source: active = GI50 up to about 1.1 µM and inactive = higher.
The entries below are paired with their reported GI50.

A selection of reference data follows.
[ask] Please give the documented GI50 of O=c1cc(-c2ccccc2)[nH]c2ccc(S)cc12
[reply] 15.5 µM (inactive)

[ask] Identify measured GI50 associated with COc1cc(C2c3cc4c(cc3OC(N3CCOCC3)C2C)OCO4)cc(OC)c1O (stereo unspecified)
[reply] 3.18 µM (inactive)

[ask] Return the recorded GI50 value; entry: Cc1cc(=O)oc2cc(OCC(O)COC(C)C)ccc12 (stereo unspecified)
[reply] > 100 µM (inactive)

[ask] Please give the documented GI50 of Cc1ccc(C)c(NC(=O)/C(=N\N)C(c2cnc3ccc([N+](=O)[O-])cc3n2)[N+](=O)[O-])c1 (stereo unspecified)
[reply] 41.6 µM (inactive)

Further cases:
[ask] For the molecule COc1cc2c(SCCN(C)C)nc3ccccc3c2c2ccccc12 , report GI50.
[reply] 1.83 µM (inactive)

[ask] Respond only with GI50 recorded for O=C1CCCNn2c(nc3ncccc3c2=O)N1
[reply] > 100 µM (inactive)

* * *

GI50 listing for selected compounds.
Test system: SF-268
Assay: NCI tumour cell line growth inhibition, 48 h
Calls of active or inactive are those of the source. Cut-off read from the data, not from the text of the source: active = GI50 up to about 1.1 µM and inactive = higher.

Examples with their reported GI50 follow.
[ask] Hello, please tell me recorded GI50 for this one: CC(C)N(C(=O)C12C3C4C1C1C4(C#N)C3C12C(=O)O)C(C)C (configuration not stated)
[reply] > 100 µM (inactive)

[ask] Return the recorded GI50 value; entry: CC(C)CC1[C@@H](OCc2ccccc2)COS(=O)N1Cc1ccccc1 (some centres not stated)
[reply] 32.6 µM (inactive)

[ask] Identify the reported GI50 for the following entry. Cc1cc2c(=Cc3ccc(N(C)C)cc3)c3ccccc3n2[n+]1C
[reply] 0.537 µM (active)

Further cases:
[ask] Tell us which GI50 value is on record for Cc1c2cc[n+](C)cc2c(C)c2c1[nH]c1ccc(Oc3ccccc3)cc12
[reply] 0.738 µM (active)

[ask] Using known records, supply GI50 for COc1cc2c(SCCN(C)C)nc3ccccc3c2c2ccccc12
[reply] 2.04 µM (inactive)

[ask] Return the recorded GI50 value; entry: COc1ccc(Cc2ccccc2C(=O)O)c2ccccc12
[reply] 22.8 µM (inactive)

[ask] Give me measured GI50, please, for this compound: O=C(C/C(=N/O)C(=O)NC1=C(Cl)C(=O)c2ccccc2C1=O)CC(c1ccccc1)c1c(O)c2ccccc2oc1=O (configuration not stated)
[reply] 7.35 µM (inactive)

[ask] Tell me measured GI50 for Cc1cc(/N=C/c2ccc(Cl)cc2)n(-c2ccccc2)n1 please.
[reply] 69.3 µM (inactive)

* * *

Overview of recorded GI50 for various molecules
Test system: RXF 393
Test: NCI tumour cell line growth inhibition, 48 h
Active and inactive are the calls of the source. Rule as the data show it: active = GI50 up to about 1.1 µM and inactive = higher.

In the examples that follow, each entry is paired with its recorded GI50.
[ask] Using known records, supply GI50 for CCOC(=O)C1C(=O)C(=O)N2CCc3c([nH]c4ccccc34)C12 (configuration not stated)
[reply] > 100 µM (inactive)

[ask] Quote GI50 reported for CN1CCN(C)C12C=CC=CC21CC1 please.
[reply] > 100 µM (inactive)

[ask] Give me measured GI50, please, for this molecule: O=C(c1cc(Cl)ccc1Cl)N1CCN(c2cccc(Cl)c2)CC1
[reply] 11.1 µM (inactive)

***
[ask] Give the measured GI50 for NC(CCSC(F)F)C(=O)O (configuration not stated)
[reply] > 100 µM (inactive)

* * *

Tested on: RPMI-8226
Experiment: NCI tumour cell line growth inhibition, 48 h
Active and inactive are the calls of the source. Cut-off read from the data, not from the text of the source: active = GI50 up to about 1.1 µM and inactive = higher.
endpoint_name: GI50

Observe how each entry below is paired with its result.
[ask] Look up and state reported GI50 for CN1CCN(c2ccc3[nH]c(-c4ccc5[nH]c(CCCc6ccc(N(CCCl)CCCl)cc6)nc5c4)nc3c2)CC1
[reply] > 100 µM (inactive)

[ask] Quote GI50 reported for C=C1C(=O)O[C@H]2[C@H]1[C@H](OC(=O)/C(C)=C\C)C[C@]1(CO1)[C@@H]1[C@H](OC(C)=O)C=C(C)[C@]21O [EUPAROTIN ACETATE] please.
[reply] 4.82 µM (inactive)

[ask] State, in one line, measured GI50 of Oc1cnc2c(O)cccc2c1
[reply] 38.1 µM (inactive)

New cases:
[ask] Provide only the value of recorded GI50 for C=C1C(=O)O[C@@H]2C[C@@]3(C)CCC[C@H](C)C3=C[C@H]12
[reply] 1.76 µM (inactive)

[ask] Respond only with GI50 recorded for CC(C)(C)OC(=O)NC(Cc1ccc(OC(C)(C)C)cc1)C(=O)N[C@H]1CC[C@H](C(=O)O)C1 (stereo partly drawn)
[reply] > 100 µM (inactive)

[ask] Answer with reported GI50 of CCOP(=O)(OCC)/C(C#N)=C\c1ccc(OC(C)=O)cc1
[reply] > 100 µM (inactive)

[ask] Please give measured GI50 of the following entry: O=C(CC1C(=O)Nc2ccccc2S1(=O)=O)Nc1cccc(Cl)c1 (stereo not drawn)
[reply] 3.93 µM (inactive)

[ask] Item CC(=O)NC1C(OCc2ccccc2)OC(CO)C(O)C1OCC(=O)NC(C)C(=O)NC(CCC(=O)NCCCCCC(=O)Nc1ccc2c(c1)CN1C(=O)c3ccccc3C1=N2)C(N)=O (stereo not drawn) : provide GI50
[reply] 38 µM (inactive)

* * *

GI50: recorded values
System: HOP-92
Test: NCI tumour cell line growth inhibition, 48 h
Calls of active or inactive are those of the source. Rule as the data show it: active = GI50 up to about 1.1 µM and inactive = higher.

[ask] Return GI50 for the following compound: NCCN1C(=O)CN=C(c2ccc(Cl)cc2)c2cc(Cl)ccc21
[reply] 9.84 µM (inactive)

[ask] Look up and report measured GI50 for this entry: Cc1ccc2nc3c(C(=O)NCCN(C)C)cccc3cc2c1
[reply] 1.75 µM (inactive)

[ask] Please report GI50 for the following compound: CCOC(=O)NC(Nc1ccc([N+](=O)[O-])cc1)(C(F)(F)F)C(F)(F)F
[reply] 31.1 µM (inactive)

[ask] Quote GI50 reported for O=C1CN2C(Cl)(Cl)C2(c2ccccc2)c2cc(Cl)ccc2N1CC(F)(F)F (stereo unspecified) please.
[reply] 13.6 µM (inactive)

[ask] Supply reported GI50 belonging to this compound: COC(=O)C(NC(=O)c1ccccc1)C(c1ccc(Cl)cc1)P(=O)(OC)OC (stereo unspecified)
[reply] > 100 µM (inactive)

Moving on to another compound below.
[ask] Name the recorded GI50 of the item O[C@]12CCCC[C@H]1CCC2 in your answer.
[reply] > 100 µM (inactive)

* * *

Test system: 786-0
Assay: NCI tumour cell line growth inhibition, 48 h
The source made the active and inactive calls. Rule as the data show it: active = GI50 up to about 1.1 µM and inactive = higher.
Reported GI50 is given for each of the following compounds.

Below, 4 compounds whose answers are already recorded.
[ask] Find the measured GI50 of Cc1ccc(S(=O)(=O)ON/N=C2/C3OC3[C@@H]3CCCC[C@H]23)cc1 (stereo not given in full) with 786-0 as test system.
[reply] > 100 µM (inactive)

[ask] Give the observed GI50 of CC(C)(C)/C(O)=C\c1nc2cc(F)c(F)cc2[nH]c1=O for 786-0.
[reply] > 100 µM (inactive)

[ask] Output reported GI50 of the compound COc1cc2c3c(c1OC)C(=O)C=C3N(S(=O)(=O)c1ccc(C)cc1)CC2 on 786-0.
[reply] 21.3 µM (inactive)

[ask] # assay system 786-0: give GI50 of COC(=O)/C=C/c1ccc2nncnc2c1.COC(=O)/C=C\c1ccc2nncnc2c1
[reply] > 100 µM (inactive)

// moving on: another record for GI50
[ask] Look up 786-0 data: GI50 of Nc1nc(O)c2c(n1)NCN(CCCN1CCOCC1)C2 , then report it.
[reply] > 100 µM (inactive)
